Where do the numbers come from? From ChEMBL document CHEMBL4673368.

Test system: Vibrio alginolyticus
method_summary: Antibacterial activity against Vibrio alginolyticus QDIO-7 assessed as reduction in microbial growth after 24 hrs by serial dilution method
Assay type: functional
Give measured MIC for each item. Keep answers brief.

Previously resolved entries follow.
compound_structure	MIC
CC(C)=C/C=C\[C@H](C)[C@H]1CC[C@]2(C)C[C@@H]3C(C)=CC(=O)[C@H]3/C(C=O)=C\C[C@@H]12	4 µg/mL
CO[C@]12C[C@@](C)(O)[C@H]3C[C@@]4(C)CC[C@H]([C@@H](C)/C=C\C=C(C)C)[C@@H]4C/C=C(/CO1)[C@@]32O	> 32 µg/mL
CC(C)=C/C=C\[C@H](C)[C@H]1CC[C@]2(C)C[C@@H]3C(C)=CC(=O)[C@H]3/C(CO)=C\C[C@@H]12	4 µg/mL

For every item in the list below, what is its measured MIC?
1. CC(C)=CCC[C@H](C)[C@H]1CC[C@]2(C)C[C@H]3[C@@H]4/C(=C\C[C@@H]12)CO[C@]4(O)C[C@@]3(C)O
2. CC(C)=CCC[C@H](C)[C@H]1CC[C@]2(C)C[C@@H]3C(C)=CC(=O)[C@H]3/C(CO)=C\C[C@@H]12
3. CC(C)=CCC[C@H](C)[C@H]1CC[C@]2(C)C[C@@H]3C(C)=CC(=O)[C@H]3/C(C=O)=C\C[C@@H]12
4. CC(C)=C/C=C\[C@H](C)[C@H]1CC[C@]2(C)C[C@H]3[C@@H]4/C(=C\C[C@@H]12)CO[C@]4(O)C[C@@]3(C)O

["> 32 µg/mL", "> 32 µg/mL", "> 32 µg/mL", "> 32 µg/mL"]

So what MIC did O=C(N[C@H](CO)[C@H](O)c1ccc([N+](=O)[O-])cc1)C(Cl)Cl get with Vibrio alginolyticus?
0.5 µg/mL

###

Give measured MIC for each item. Keep answers brief.
Tested on: Edwardsiella tarda
method_summary: Antibacterial activity against Edwardsiella tarda QDIO-8 assessed as reduction in microbial growth after 24 hrs by serial dilution method
Type: functional
Give bare numbers, in µg/mL.

molecule	obs_value
O=C(N[C@H](CO)[C@H](O)c1ccc([N+](=O)[O-])cc1)C(Cl)Cl [CHLORAMPHENICOL]	0.5

Let's switch to this molecule now.
So what MIC did CC(C)=CCC[C@H](C)[C@H]1CC[C@]2(C)C[C@H]3[C@H]4/C(=C\C[C@@H]12)CO[C@@]4(O)C[C@@]3(C)O get with Edwardsiella tarda?
4

###

Tested on: Edwardsiella tarda
method_summary: Antibacterial activity against Edwardsiella tarda QDIO-8 assessed as reduction in microbial growth after 24 hrs by serial dilution method
Type: functional
Give measured MIC for each item. Keep answers brief.

compound_structure	obs_value
CO[C@]12C[C@@](C)(O)[C@H]3C[C@@]4(C)CC[C@H]([C@@H](C)/C=C\C=C(C)C)[C@@H]4C/C=C(/CO1)[C@@]32O	> 32 µg/mL

For every item in the list below, what is its measured MIC?
1. CC(C)=CCC[C@H](C)[C@H]1CC[C@]2(C)C[C@@H]3C(C)=CC(=O)[C@H]3/C(C=O)=C\C[C@@H]12
2. CC(C)=CCC[C@H](C)[C@H]1CC[C@]2(C)C[C@H]3[C@@H]4/C(=C\C[C@@H]12)CO[C@]4(O)C[C@@]3(C)O

1. > 32 µg/mL
2. > 32 µg/mL
